Target: T1, Murine OPG-Fc (mouse, UniProt O08712 22-401)
T1 sequence (looked up): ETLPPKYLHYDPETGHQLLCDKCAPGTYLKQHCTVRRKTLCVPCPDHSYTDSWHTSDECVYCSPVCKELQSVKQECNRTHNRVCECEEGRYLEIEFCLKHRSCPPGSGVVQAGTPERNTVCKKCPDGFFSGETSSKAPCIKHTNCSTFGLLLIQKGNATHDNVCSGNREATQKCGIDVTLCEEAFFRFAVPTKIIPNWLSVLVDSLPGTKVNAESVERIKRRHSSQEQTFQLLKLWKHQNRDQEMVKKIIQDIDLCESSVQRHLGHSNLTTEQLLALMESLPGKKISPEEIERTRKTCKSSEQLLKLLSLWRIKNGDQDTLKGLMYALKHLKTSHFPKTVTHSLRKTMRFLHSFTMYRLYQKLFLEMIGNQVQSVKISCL
Assay: SPR

{"BINDER": "RANKL_Q236N (ligand, mouse, UniProt O35235 160-316, looked up) EAQPFAHLTINAASIPSGSHKVTLSSWYHDRGWAKISNMTLSNGKLRVNQDGFYYLYANICFRHHETSGSVPTDYLNLMVYVVKTSIKIPSSHNLMKGGSTKNWSGNSEFHFYSINVGGFFKLRAGEEISIQVSNPSLLDPDQDATYFGAFKVQDID", "MEASUREMENT UNIT": "M⁻¹ s⁻¹", "kon": "1.5e+07"}
{"BINDER": "RANKL_Q236K (ligand, mouse, UniProt O35235 160-316, looked up) EAQPFAHLTINAASIPSGSHKVTLSSWYHDRGWAKISNMTLSNGKLRVNQDGFYYLYANICFRHHETSGSVPTDYLKLMVYVVKTSIKIPSSHNLMKGGSTKNWSGNSEFHFYSINVGGFFKLRAGEEISIQVSNPSLLDPDQDATYFGAFKVQDID", "MEASUREMENT UNIT": "M⁻¹ s⁻¹", "kon": "1.1e+07"}

Just for reference, paper PMC6852375 is where these values come from.
